Cloned Human Serotonin Receptor, Subtype 7 (h5HT7) (Homo sapiens, UniProt P34969): recorded pIC50 for assorted molecules
Sequence (P34969 whole entry): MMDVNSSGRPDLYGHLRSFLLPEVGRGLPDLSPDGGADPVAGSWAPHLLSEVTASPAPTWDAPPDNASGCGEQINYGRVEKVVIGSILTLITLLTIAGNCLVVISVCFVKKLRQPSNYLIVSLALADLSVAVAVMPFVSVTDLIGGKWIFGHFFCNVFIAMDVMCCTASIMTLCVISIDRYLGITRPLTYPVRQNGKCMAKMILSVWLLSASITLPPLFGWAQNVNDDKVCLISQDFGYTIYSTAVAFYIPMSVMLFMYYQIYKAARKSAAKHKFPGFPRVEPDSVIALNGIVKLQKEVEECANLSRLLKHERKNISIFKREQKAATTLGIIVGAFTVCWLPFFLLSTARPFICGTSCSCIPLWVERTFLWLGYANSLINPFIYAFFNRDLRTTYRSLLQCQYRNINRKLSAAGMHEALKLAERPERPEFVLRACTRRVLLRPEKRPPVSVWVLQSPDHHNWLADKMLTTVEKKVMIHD
pIC50: −log10 of the molar value. Structures can show the parent of a compound that is named as a salt.
quantity_kind: pIC50

Would you please look over these solved cases?
{"molecule": "O=S(=O)(NCCCN1CCc2cccc3c2C1CC3)c1cc(Cl)ccc1Cl (stereo not shown) [Compound 15, hydrochloride]", "pIC50": 6.85}
{"molecule": "COc1cc2c3c(c1OC)CCC3N(CCCNS(=O)(=O)c1cc(Cl)ccc1Cl)CC2 (stereo not shown) [Compound 56, hydrochloride]", "pIC50": 6.81}

[I] COc1cc2c3c(c1OC)CCC3N(CCCNS(=O)(=O)c1cc(F)c(F)cc1Cl)CC2 (stereo not shown) [Compound 58, hydrochloride]
[II] Cc1cc(S(=O)(=O)NCCCCN2CCc3cccc4c3C2CC4)c(C)cc1Cl (stereo not shown) [Compound 7, hydrochloride]
Asked: Which value of pIC50 is smaller, the one for I or the one for II ? Choose, then provide that item's label.
Given back: I
(I: 6.72, II: 7.10)
